- target desc: T1, human CD3 expressed on cells (Jurkat cells; human primary T cells) (human, UniProt P07766 23-207; P04234 22-171; P09693 23-182)
- T1 construct: whole, on cells
- T1 sequence (P07766 23-207, chain 1 of 3): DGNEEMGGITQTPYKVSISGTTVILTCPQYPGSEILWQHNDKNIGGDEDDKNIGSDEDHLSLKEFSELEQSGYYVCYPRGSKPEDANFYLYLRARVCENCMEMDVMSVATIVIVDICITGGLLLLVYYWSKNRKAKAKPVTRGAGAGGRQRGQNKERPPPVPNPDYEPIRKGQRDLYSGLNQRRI
- T1 sequence (P04234 22-171, chain 2 of 3): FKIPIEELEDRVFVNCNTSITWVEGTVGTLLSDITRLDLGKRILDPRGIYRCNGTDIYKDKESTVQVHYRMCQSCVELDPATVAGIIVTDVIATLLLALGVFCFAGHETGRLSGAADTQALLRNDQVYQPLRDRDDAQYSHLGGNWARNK
- T1 sequence (P09693 23-182, chain 3 of 3): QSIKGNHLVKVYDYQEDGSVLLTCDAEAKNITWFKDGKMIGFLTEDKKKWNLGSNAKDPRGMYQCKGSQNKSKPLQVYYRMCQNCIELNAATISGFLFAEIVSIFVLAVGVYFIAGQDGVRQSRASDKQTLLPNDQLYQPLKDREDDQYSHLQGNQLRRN
- assay method text: flow cytometry, 25 nM, human primary T cells
// values below are reported Binding (FOI)

| binder | quantity unit | Binding (FOI) |
| --- | --- | --- |
| mAb 261 (antibody, V domains shown, VH/VL only) VH: EVQLLESGGGFMQPGGSLRLSCAVSGFTFRTSSMAWVRQAPGKGLEWVSGIRGSGGRTYDAESVKGRFTISRDISKNTLYLQMNNLRAEDTAEYYCAKLYDYYNDFMDVWGKGTTVIVSA VL: SYELTQPLSVSVALGQTARITCGGNNIGSKNVHWYQQKPGQAPVLVIYRDSNRPSGIPERFSGSNSGNTATLTISRAQAGDEADYYCQVWDSSTAVFGGGTQLTAL | FOI | 229 |
| mAb 210 (antibody, V domains shown, VH/VL only) VH: QVQLVESGGGVVQPGRSLRLSCAASGFTFSGYGMHWVRQAPGKGLEWLAIIYYNGNNRKYADSVKGRFTISRDNSKNTVSLQMNSLRVEDTAMYYCTRGDGYNWFVTWGQGTLVTVSS VL: EIVMTQSPATLSVSPGERAALSCRASQSVTSNLAWYHQKPGQAPRLLIYGASTRATGIPVRFSGSGSGTEFTLTISSLQSEDFAVYYCQQYNNWPLTFGGGTKVENK | FOI | 192 |
| mAb 263 (antibody, V domains shown, VH/VL only) VH: EVQLLESGGGLVQPGGSLRLSCTPSGITFNNYAMTWVRQAPGKGLEWVSGISVSGGSTYYADSVMGRFTISRDSSKTLYLQMNSLRAEDTAVYYCAKFHSHYYYYMDVWGKGTTVTVSS VL: SYELTQPLSVSVALGQTARITCGGNNIGSKDVHWYQQKPGQAPVLVIYRDSNRPSGIPERFSGSNSGNTATLTISRAQAGDEADYYCQVWDRRTAVFGGGTQLTAL | FOI | 248 |
| mAb 179 (antibody, V domains shown, VH/VL only) VH: EVQLVESGGGLVQPGRSLRLSCAASGFTFDDYTMHWVRQTPGKGLEWVSDISWNSGSIGYADSVKGRFTISRDNAKNTLYLQMNSLRAEDTALYYCVKDSSGYGHYLYYYMDVWGKGTTVTVSS VL: DIQMTQSPSSLSASVGDRVTITCRASQSIRNYLNWYQQSPGRAPKLLIFSASSLQSGVPSRFSGSGSGTDFTLTISSLQPEDFVTYYCQQRYSTPITFGQGTRLEIK | FOI | 177 |
| mAb 285 (antibody, V domains shown, VH/VL only) VH: EVQLLESGGGLGQPGGSLRLSCAASGFTFSNYAMSWVRQAPGKGLEWVSVISGSGGDKNYADSVKGRFTISRDNSKNTLYLQMNSLRAEDTAVYYCAKKYSYYYYYMDVWGKGTTVTVSS VL: SYELTQPLSVSVALGQTARITCGGNNIGSKDVHWYQQKPGQAPVLVIYRDSNRPSGIPERFSGSNSGNTATLTISSAQAGDEADYYCQVWDSRTAVFGGGTQLTAL | FOI | 229 |
